Reference source: paper PMC9482650

Molecular target: T1, PDZRN3_1, Q9UPQ7
T1 sequence (Q9UPQ7 244-349, limits assumed, looked up): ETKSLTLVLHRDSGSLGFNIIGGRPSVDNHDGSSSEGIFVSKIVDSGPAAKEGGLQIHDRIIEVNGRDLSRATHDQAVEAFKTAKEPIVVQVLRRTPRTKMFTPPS
Assay: holdup assay
Parameters: key: below the threshold = too weak to quantify, mostly under pKd 3.1 to 4
Conditions: plain residues with an end cap or a label only (N-terminal biotin on a linker: ado-ado)
Is pKd at least 4? Then TRUE. If not, FALSE.

Binder	Label value
APIAGFSSFV [SDK2, Q58EX2]	FALSE
NIAESLESLV [PTPRZ1, P23471]	TRUE
VLYPREGTEV [FOXI1, Q12951]	TRUE
